Target: bovine erythrocyte CA II (bCA-II) (Bos taurus, UniProt P00921)
Sequence (P00921 whole entry): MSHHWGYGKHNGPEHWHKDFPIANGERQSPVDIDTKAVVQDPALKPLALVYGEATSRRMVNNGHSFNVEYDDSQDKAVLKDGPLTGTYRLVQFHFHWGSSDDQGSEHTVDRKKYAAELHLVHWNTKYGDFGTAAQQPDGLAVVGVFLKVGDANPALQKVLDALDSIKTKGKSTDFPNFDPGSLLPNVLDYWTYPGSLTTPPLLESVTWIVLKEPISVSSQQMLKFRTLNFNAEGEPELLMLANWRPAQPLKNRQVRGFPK
Experiment: In vitro carbonic anhydrase inhibition assay
Type: biochemical
Conditions: bCA-II, substrate 4-NPA, 25 °C, pH 7.4; test concentration not given
ATTRIBUTE_MEASURED: % inhibition (%)

Some molecules with recorded % inhibition:
bovine erythrocyte CA II (bCA-II) (Bos taurus, UniProt P00921) % inhibition of CCCSc1nc2ccccc2n1CC(=O)NN=Cc1ccc(C(C)C)cc1 is 90.1

bovine erythrocyte CA II (bCA-II) (Bos taurus, UniProt P00921) % inhibition of CCCSc1nc2ccccc2n1CC(=O)NN=Cc1cccc(OC)c1OC is 89.6

bovine erythrocyte CA II (bCA-II) (Bos taurus, UniProt P00921) % inhibition of CCCSc1nc2ccccc2n1CC(=O)NN=Cc1cccc(OC)c1O is 89.1

bovine erythrocyte CA II (bCA-II) (Bos taurus, UniProt P00921) % inhibition of CCCSc1nc2ccccc2n1CC(=O)NN=Cc1ccccc1OC is 88.2

bovine erythrocyte CA II (bCA-II) (Bos taurus, UniProt P00921) % inhibition of CCCSc1nc2ccccc2n1CC(=O)NN=Cc1cccc2ccccc12 is 91.7

bovine erythrocyte CA II (bCA-II) (Bos taurus, UniProt P00921) % inhibition of CCCSc1nc2ccccc2n1CC(=O)NN=Cc1ccc(O)cc1O is 20.8

A: CCCSc1nc2ccccc2n1CC(=O)NN=Cc1ccc(C)o1
B: CCCSc1nc2ccccc2n1CC(=O)NN=Cc1ccc(C=O)cc1
### Prompt Task for the reader: decide whether A or B has the larger % inhibition. Write down the label attached to your selection.
### Response A

a: CCCSc1nc2ccccc2n1CC(=O)NN=Cc1ccc(C)cc1
b: CCCSc1nc2ccccc2n1CC(=O)NN=Cc1ccc(OC)cc1OC
### Prompt Parameter metric = % inhibition. Return the lower-valued option from a and b . Write down the label attached to your selection.
### Response a
(a: 13.6%, b: 91.2%)

----------
Biological target: bovine erythrocyte CA II (bCA-II) (Bos taurus, UniProt P00921)
Assay: In vitro carbonic anhydrase inhibition assay
Type: biochemical
Settings: qualitative statement
ATTRIBUTE_MEASURED: inhibition activity against bCA-II (in words)

bovine erythrocyte CA II (bCA-II) (Bos taurus, UniProt P00921) inhibition activity against bCA-II (in words) of CCCSc1nc2ccccc2n1CC(=O)NN=Cc1ccc(C=O)cc1 is inactive

bovine erythrocyte CA II (bCA-II) (Bos taurus, UniProt P00921) inhibition activity against bCA-II (in words) of CCCSc1nc2ccccc2n1CC(=O)NN=Cc1ccc(N(CC)CC)cc1 is inactive

bovine erythrocyte CA II (bCA-II) (Bos taurus, UniProt P00921) inhibition activity against bCA-II (in words) of CCCSc1nc2ccccc2n1CC(=O)NN=Cc1cccc(OC)c1 is inactive

----------
Biological target: bovine erythrocyte CA II (bCA-II) (Bos taurus)
Test: In vitro carbonic anhydrase inhibition assay
Format: biochemical
Conditions: qualitative statement
ATTRIBUTE_MEASURED: inhibition activity against bCA-II (in words)

Entry CCCSc1nc2ccccc2n1CC(=O)NN=Cc1ccc(C)o1 [Compound 26] — recorded inhibition activity against bCA-II (in words) = least active inhibitors

Entry CCCSc1nc2ccccc2n1CC(=O)NN=Cc1ccc(C)cc1 [Compound 19] — recorded inhibition activity against bCA-II (in words) = inactive

Entry CCCSc1nc2ccccc2n1CC(=O)NN=Cc1ccc(F)cc1 [Compound 24] — recorded inhibition activity against bCA-II (in words) = least active inhibitors

Entry CCCSc1nc2ccccc2n1CC(=O)NN=Cc1ccc(O)cc1O [Compound 14] — recorded inhibition activity against bCA-II (in words) = inactive

---
Entry CCCSc1nc2ccccc2n1CC(=O)NN=Cc1ccc(OC)c(OC)c1 [Compound 13] — recorded inhibition activity against bCA-II (in words) = inactive

Entry CCCSc1nc2ccccc2n1CC(=O)NN=Cc1cccc(OC)c1OC [Compound 27] — recorded inhibition activity against bCA-II (in words) = least active inhibitors
